- tested_system: Mitogen-activated protein kinase 14 (Homo sapiens)
- Sequence (Q16539 whole entry): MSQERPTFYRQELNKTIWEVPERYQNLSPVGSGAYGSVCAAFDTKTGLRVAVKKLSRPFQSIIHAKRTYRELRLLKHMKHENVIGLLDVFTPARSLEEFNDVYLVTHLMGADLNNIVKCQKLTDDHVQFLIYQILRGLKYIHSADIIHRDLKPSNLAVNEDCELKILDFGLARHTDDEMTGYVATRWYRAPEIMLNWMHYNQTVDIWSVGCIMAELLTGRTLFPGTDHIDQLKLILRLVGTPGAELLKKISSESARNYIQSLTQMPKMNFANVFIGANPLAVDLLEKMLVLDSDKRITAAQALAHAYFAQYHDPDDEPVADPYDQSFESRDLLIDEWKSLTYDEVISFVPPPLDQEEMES
Label True when Ki is strictly below 300 nM; otherwise label False.

COc1ccc(CCNC(=O)c2cc(-n3nc(C(C)(C)C)cc3NC(=O)Nc3cccc4ccccc34)ccc2C)cc1
False
Cc1ccc(-n2nc(C(C)(C)C)cc2NC(=O)Nc2cccc3ccccc23)cc1C(=O)N(CCCN)C1CCCCC1
True
CCN(CCN(C)C)C(=O)c1cc(-n2nc(C(C)(C)C)cc2NC(=O)Nc2cccc3ccccc23)ccc1C
False
Cc1ccc(-n2nc(C(C)(C)C)cc2NC(=O)Nc2cccc3ccccc23)cc1C(=O)NCCC1=CCCCC1
False
Cc1ccc(-n2nc(C(C)(C)C)cc2NC(=O)Nc2cccc3ccccc23)cc1C(=O)NCCNc1ccccc1
False
Cc1ccc(-n2nc(C(C)(C)C)cc2NC(=O)Nc2cccc3ccccc23)cc1C(=O)N(CCCN)C(C)C
False
Cc1ccc(-n2nc(C(C)(C)C)cc2NC(=O)Nc2cccc3ccccc23)cc1C(=O)NCCN1CCN(C)CC1
True

Then this compound:
# input Is Ki of Cc1ccc(-n2nc(C(C)(C)C)cc2NC(=O)Nc2cccc3ccccc23)cc1C(=O)N[C@@H]1CS(=O)(=O)C[C@H]1O strictly below 300 nM?
# output True
